Listed here: items and their measured OD value.
# tested system: T1, human Nectin-4 extracellular antigen hNectin-4-His (human, UniProt Q96NY8 32-349)
# T1 construct: C-terminal 8xHis tag included
# T1 sequence: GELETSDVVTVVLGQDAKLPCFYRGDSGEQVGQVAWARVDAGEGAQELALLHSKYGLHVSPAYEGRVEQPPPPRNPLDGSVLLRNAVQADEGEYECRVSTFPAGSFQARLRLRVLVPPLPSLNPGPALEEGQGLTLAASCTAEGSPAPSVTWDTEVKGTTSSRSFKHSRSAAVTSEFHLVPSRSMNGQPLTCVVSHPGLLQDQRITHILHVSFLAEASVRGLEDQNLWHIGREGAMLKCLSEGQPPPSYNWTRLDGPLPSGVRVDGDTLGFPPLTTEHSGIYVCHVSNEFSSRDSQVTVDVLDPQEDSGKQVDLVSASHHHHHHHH
# test name: ELISA, phage scFv supernatant 1:50
Enter the number, and then the unit.

1F3-2H6 scFv (scFv, V domains shown, phage clone supernatant) VH: EVQLVESGGGLVQPGGSLRLSCAASGYTFSSYGMSWVRQAPGKGLEWVSRIKSDGGDTHYADSVKGRFTISRDNSKNTLYLQMNSLRAEDTAVYYCARAELLAFDVYTASDYWGQGTLVTVSS VL: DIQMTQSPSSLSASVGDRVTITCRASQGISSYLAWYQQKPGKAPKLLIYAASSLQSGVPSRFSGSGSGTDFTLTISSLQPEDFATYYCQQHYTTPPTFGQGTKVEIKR | 1.31 OD

Could you now look at the following binder, please?
Prompt: Recorded OD value of 10F4-2F11 scFv (scFv, V domains shown, phage clone supernatant) VH: EVQLVESGGGLVQPGGSLRLSCAASGYNFTSYDMSWVRQAPGKGLEWVSGIKTGGGSARYADSVKGRFTISRDNSKNTLYLQMNSLRAEDTAVYYCAREYSDVVDYVSVRTPLDYWGQGTLVTVSS VL: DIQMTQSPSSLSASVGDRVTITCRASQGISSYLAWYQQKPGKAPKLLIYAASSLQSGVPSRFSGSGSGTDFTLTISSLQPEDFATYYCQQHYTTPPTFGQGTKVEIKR , please.
Completion: 1.46 OD
